Exercise: for every item that follows, state its recorded IC50.

State the measured IC50 (Voltage-gated inwardly rectifying potassium channel KCNH2 (Homo sapiens)) of COc1ccc(CC(C)(C)NCC(O)COc2cccc(Cl)c2C#N)cc1 (racemic) 3.6 µM

Check Voltage-gated inwardly rectifying potassium channel KCNH2 (Homo sapiens) data and give IC50 for COc1ccc(CC(C)(C)NC[C@H](O)COc2cccc3[nH]c(=O)[nH]c23)cc1 . 11.8 µM

Check Voltage-gated inwardly rectifying potassium channel KCNH2 (Homo sapiens) data and give IC50 for CC(C)(Cc1ccc2ccccc2c1)NC[C@@H](O)COc1cccc(Cl)c1C#N.Cl . 3 µM

----------
Target: Extracellular calcium-sensing receptor (Homo sapiens)
Sequence (P41180 whole entry): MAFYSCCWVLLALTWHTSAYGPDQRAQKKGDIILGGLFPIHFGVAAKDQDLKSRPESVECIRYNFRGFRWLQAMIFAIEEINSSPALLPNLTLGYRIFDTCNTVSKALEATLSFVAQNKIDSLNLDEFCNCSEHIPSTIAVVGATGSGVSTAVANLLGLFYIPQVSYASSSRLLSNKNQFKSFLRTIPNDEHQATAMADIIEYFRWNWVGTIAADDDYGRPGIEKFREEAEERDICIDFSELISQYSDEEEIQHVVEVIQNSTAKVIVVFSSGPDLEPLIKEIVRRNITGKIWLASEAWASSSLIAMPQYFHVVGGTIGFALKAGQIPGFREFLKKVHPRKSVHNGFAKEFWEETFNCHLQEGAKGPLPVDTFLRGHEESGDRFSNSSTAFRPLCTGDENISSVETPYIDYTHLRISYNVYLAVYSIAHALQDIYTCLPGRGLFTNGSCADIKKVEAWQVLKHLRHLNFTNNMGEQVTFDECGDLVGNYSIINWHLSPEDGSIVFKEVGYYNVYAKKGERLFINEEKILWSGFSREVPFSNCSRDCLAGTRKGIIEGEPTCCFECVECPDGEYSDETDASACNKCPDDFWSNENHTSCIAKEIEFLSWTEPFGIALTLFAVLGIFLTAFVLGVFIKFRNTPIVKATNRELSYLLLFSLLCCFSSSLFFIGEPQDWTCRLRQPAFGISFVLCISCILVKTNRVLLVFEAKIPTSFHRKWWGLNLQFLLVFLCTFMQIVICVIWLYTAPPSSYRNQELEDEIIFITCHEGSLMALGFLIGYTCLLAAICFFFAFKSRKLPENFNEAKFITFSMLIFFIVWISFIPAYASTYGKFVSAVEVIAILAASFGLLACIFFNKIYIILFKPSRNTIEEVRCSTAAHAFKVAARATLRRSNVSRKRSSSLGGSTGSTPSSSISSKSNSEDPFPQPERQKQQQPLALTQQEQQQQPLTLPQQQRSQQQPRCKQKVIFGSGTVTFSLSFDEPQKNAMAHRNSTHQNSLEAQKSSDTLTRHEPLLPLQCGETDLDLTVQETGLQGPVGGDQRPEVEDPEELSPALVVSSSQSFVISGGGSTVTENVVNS
Test: Binding affinity to human parathyroid calcium receptor 1 expressed in HEK293 4.0-7 cells by radioligand binding assay
Recorded Endpoint: pIC50
Scale note: pIC50 = -log10(concentration in M).

Give pIC50; test system Extracellular calcium-sensing receptor (Homo sapiens); compound CCCCOCC(O)CNC(C)(C)Cc1ccc(OC)cc1 (racemic) 5.49

Check Extracellular calcium-sensing receptor (Homo sapiens) data and give pIC50 for COc1ccc(CC(C)(C)NCC(O)COc2cccc(Cl)c2C#N)cc1 (racemic) . 7.15

GET pIC50 where system = Extracellular calcium-sensing receptor (Homo sapiens) and item = COc1ccc(CC(C)(C)NCC(O)COc2ccc3ccccc3c2)cc1 (racemic) 5.89

Please report pIC50 with Extracellular calcium-sensing receptor (Homo sapiens) for item COc1ccc(CC(C)(C)N(C)CC(O)COc2cccc(Cl)c2Cl)cc1 (racemic) . 5.64

Write pIC50 of COc1ccc(CC(C)(C)NCC(O)COc2cccc(Cl)c2)cc1 (racemic) ; system used: Extracellular calcium-sensing receptor (Homo sapiens) 6.00

Write down measured pIC50 (Extracellular calcium-sensing receptor (Homo sapiens)) for this compound. COc1ccc(CC(C)(C)NCC(O)COC(C)C)cc1 (racemic) 5.00

Provide pIC50, recorded with Extracellular calcium-sensing receptor (Homo sapiens), of COc1ccc(CC(C)(C)NCC(O)COc2cccc(Cl)c2Cl)cc1 (racemic) 6.70

Quote pIC50 with test system Extracellular calcium-sensing receptor (Homo sapiens) for COc1ccc(CC(C)(C)NCC(O)COc2ccccc2)cc1 (racemic) 5.64

Find pIC50 for CC(C)(Cc1ccc2ccccc2c1)NC[C@@H](O)COc1cccc(Cl)c1C#N.Cl on Extracellular calcium-sensing receptor (Homo sapiens) and write it down. 8.52
